study_target: human sEH-NTD (Homo sapiens, UniProt P34913)
Sequence (P34913 1-224 limits assumed): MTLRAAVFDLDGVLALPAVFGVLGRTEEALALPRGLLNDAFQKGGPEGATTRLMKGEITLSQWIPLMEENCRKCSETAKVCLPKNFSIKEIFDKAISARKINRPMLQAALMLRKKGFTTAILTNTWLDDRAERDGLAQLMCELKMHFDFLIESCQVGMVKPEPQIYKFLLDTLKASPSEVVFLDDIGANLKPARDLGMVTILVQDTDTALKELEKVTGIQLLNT
assay_method_text: FDP-based phosphatase assay, isolated N-terminal domain
condition_description: phosphatase activity of the isolated N-terminal domain, FDP substrate, pH 5.75; mean ± SD, n = 3
parameter_measured: pIC50
Schema: pIC50 number; meaning minus log10 of the concentration expressed in molar units.

Input line: Given the compound O=C(O)CCCc1nc(-c2ccc(Cl)c(Cl)c2)c(-c2ccccc2)o1 [Compound 2] , what is its reported pIC50?
Output line: 7.24
